Data origin: ChEMBL document CHEMBL3433997

measurement target: Hexose transporter 1 (Plasmodium falciparum) (UniProt O97467)
experimental protocol: ST_JUDE_LEISH: Cytotoxicity at 2uM final concentration against transgenic Leishmania Mexicana promastigotes LmPfHT that are glucose transport deficient and complemented with the Plasmodium falciparum hexose transporter. Activity is measured by DNA content using SYBR green in vitro
Assay type: functional
measured attribute: inhibition (%)

| molecule | measured attribute | readout unit | endpoint value |
| --- | --- | --- | --- |
| O=C(N[C@@H](CC1CCCCC1)C(=O)NC1CCCCCC1)c1ccc(O)c(-c2ccc(Cl)c(Cl)c2)c1 | inhibition | % | 1.39 |
| Cc1cnc(C(=O)Nc2cccc(-c3cccc(-c4nc5cccc(C)c5[nH]4)c3)c2)cn1 | inhibition | % | 2.89 |
| COc1cccc(C(=O)Nc2ccc(Oc3ccc(Cl)cc3)cc2)c1 | inhibition | % | -0.22 |
| N=C(N)NC(=O)Nc1cc(F)c(Cl)c(Br)c1 | inhibition | % | 4.05 |
| CC(C)C(=O)NC(Nc1ccc([N+](=O)[O-])cc1)C(Cl)(Cl)Cl (stereo not given) | inhibition | % | 3.53 |

* * *

Below, each entry is listed alongside its reported inhibition.
measurement target: Glucose transporter (Leishmania mexicana)
experimental protocol: ST_JUDE_LEISH: Cytotoxicity at 2uM final concentration against transgenic Leishmania Mexicana promastigotes LmGT2 that are glucose transport deficient and complemented with the L. Mexicana glucose transporter 2. Activity is measured by DNA content using SYBR green in vitro
Format: functional
measured attribute: inhibition

| compound | measurement target | measured attribute | endpoint value |
| --- | --- | --- | --- |
| Oc1ccccc1CNCc1ccc(-c2cnc(N3CCCC(c4ccccc4)C3)nc2)cc1 (stereo unspecified) | Glucose transporter (Leishmania mexicana) | inhibition | 9.12% |
| CC1=C(C(=O)Nc2cc3cn[nH]c3cc2F)C(c2cccc(NS(C)(=O)=O)c2)CC(=O)N1 (stereo unspecified) | Glucose transporter (Leishmania mexicana) | inhibition | 2.34% |
| CCCCCC(C)NC[C@@H](O)[C@H](Cc1ccccc1)NC(=O)c1cc(NCC)cc(N2CCCCS2(=O)=O)c1 (stereo partly specified) | Glucose transporter (Leishmania mexicana) | inhibition | 0.36% |
| CCCCNc1nc(NCCCC)c2c(C)c(Cc3ccccc3)c(NCCCC)nc2n1 | Glucose transporter (Leishmania mexicana) | inhibition | 12.3% |
| CCCC1N=C(N)N=C(N)N1c1ccc(C)c(C)c1 (stereo unspecified) | Glucose transporter (Leishmania mexicana) | inhibition | -2.79% |
| Cc1ccc2nc(C)n(C3CCN(C(=O)C4(c5ccccc5)CC4)CC3)c2c1 | Glucose transporter (Leishmania mexicana) | inhibition | 5.27% |

* * *

measurement target: Glucose transporter (Leishmania mexicana) (UniProt O61059)
experimental protocol: ST_JUDE_LEISH: Cytotoxicity at 2uM final concentration against transgenic Leishmania Mexicana promastigotes LmGT2 that are glucose transport deficient and complemented with the L. Mexicana glucose transporter 2. Activity is measured by DNA content using SYBR green in vitro
Type: functional
measured attribute: inhibition (%)

| compound | readout unit | endpoint value |
| --- | --- | --- |
| COc1cccc(NC(=O)COc2ccc(C(=O)Nc3nc4ccccc4[nH]3)cc2)c1 | % | -1.7 |
| O=C(/C=C/c1ccc(Cl)c(Cl)c1)N1CCC(CCCN2CCC(c3c[nH]c4ccccc34)CC2)CC1 | % | -0.32 |
| O=C(c1cccc(-c2ccc(-c3nc4cc(F)ccc4[nH]3)s2)c1)N1CCCCC1CN1CCC(O)C1 (configuration not stated) | % | 1.75 |
| Fc1cccc(COc2ccc(Nc3ncnc4cc(/C=C/[C@@H]5CCCN5)sc34)cc2Cl)c1 | % | 1.52 |
| COc1ccc2c(=NN=Cc3ccncc3)cc(C)[nH]c2c1 | % | 3.63 |
| C=CCc1cc(Cc2cnc(N)nc2N)cc(CCC)c1OC | % | 8.6 |
| CN(C)c1cc(NC(=O)Nc2ccccc2)c2ccccc2n1 | % | 2.82 |
| Cc1ccc(NC(=O)c2ccc3ncccc3c2)cc1OC1CCN(Cc2ccsc2)C1 (configuration not stated) | % | 0.48 |
| Cc1n[nH]c2cc(Nc3ccnc(Nc4cccc(CN5CCOCC5)c4)n3)ccc12 | % | 3.19 |
| CC(C)c1cc(N)c2cc(NC(=O)COCC(=O)Nc3ccc4nc(C(C)C)cc(N)c4c3)ccc2n1 | % | 5.02 |
| Cc1cc2ncn(-c3nccc(NCc4ccc(F)c(C)c4)n3)c2cc1C | % | 2.52 |
| Cc1onc(-c2ccccc2Cl)c1C(=O)Nc1cc(Cl)c(Cl)cc1Cl | % | 4.95 |
| Cc1nc(C)c(-c2ccc(Cl)cc2)c(O)c1I | % | 2.3 |
| CCOc1cc(Cc2cnc(N)nc2N)cc(OC)c1OC | % | -0.04 |
| COc1ccc(OC)c(-c2ccc(=O)n(CC(=O)Nc3cccc4ccccc34)n2)c1 | % | 6.44 |
| COc1ccc(-n2nc(C(=O)NCc3ccccc3OC)c3ccccc3c2=O)cc1 | % | 2.98 |
| O=C(CCCCCNC(=O)c1ccc(O)c(-c2ccc(Cl)c(Cl)c2)c1)NCc1cccc2ccccc12 | % | 3.98 |
| CNC(=O)Cc1ccc(C(=O)Nc2cccc(-c3cccc(-c4nc5cc(C(F)(F)F)ccc5[nH]4)c3)c2)cc1 | % | -0.97 |
| CCn1ccc2c(N3CCCC3=O)cc(C(=O)N[C@@H](Cc3ccccc3)[C@H](O)CNC(C)(C)CCCC(C)C)cc21 | % | 0.34 |
| NC1CCN(Cc2ccc(-c3ccc(-c4nc5cc(F)ccc5[nH]4)s3)cc2)C1 (configuration not stated) | % | 5.81 |
| O=C(NCCN1CCC(NC(=O)c2ccc(-c3ccccn3)s2)CC1)c1ccc(Cl)c(Cl)c1 | % | 4.43 |
| CC1(C)NC(N)=NC(=N)N1OCCCCCOc1ccccc1 | % | 1.28 |
| Cc1cc(=NN=Cc2ccc(F)cc2)c2cc(F)ccc2[nH]1 | % | -7.33 |
| O=S(=O)(c1ccccc1)C1CC1 | % | -0.5 |
| CN1CCN(c2ccc(Nc3ncc(Cl)c(Nc4cccnc4C(N)=O)n3)cc2)CC1 | % | 66.8 |
| CC(C)(C)OC(=O)NCc1ccc(Nc2nnc(-c3ccc(OCC(=O)NC[C@@H]4CC[C@H]5C[C@@H]4C5(C)C)c([N+](=O)[O-])c3)o2)cc1 | % | 0.68 |
| CN(C)c1cc(NN=Cc2cc(Cl)ccc2O)nc(N(C)C)n1 | % | 2.54 |

* * *

measurement target: Glucose transporter (Leishmania mexicana)
experimental protocol: ST_JUDE_LEISH: Cytotoxicity at 2uM final concentration against transgenic Leishmania Mexicana promastigotes LmGT2 that are glucose transport deficient and complemented with the L. Mexicana glucose transporter 2. Activity is measured by DNA content using SYBR green in vitro
Format: functional

| molecule | readout unit | inhibition |
| --- | --- | --- |
| Cc1cc(N[C@@H](Cc2ccccc2)C(=O)NC2CCCC2)nc(NCCc2ccc(F)cc2)n1 | % | -0.53 |
| CCC(CC)(Cc1ccccc1)NC(=O)[C@H](Cc1ccc(OC)c(OC)c1)Nc1ccc(C#N)c2ccccc12 | % | 3.47 |
| Cc1[nH]c(C)c(-c2ccc(-c3ccccc3)nc2)c(=O)c1Br | % | 0.2 |
| Cc1cc(F)ccc1C1CCN(CCCCNC(=O)c2ccc(NC(=O)c3ccc(Cl)cc3)cc2)CC1 | % | 0.87 |
| CN1CCCN(Cc2ccc(-c3ccc(NC(=O)c4ccc(Cl)cc4)cc3)cc2)CC1 | % | 50.7 |
| Cc1cccc(-c2nc(Nc3ccncc3)c3cc(N(C)C)ccc3n2)n1 | % | -3.66 |
| Cc1cc(N/N=C/c2ccccc2[N+](=O)[O-])c2ccc(F)cc2n1 | % | 1.62 |
| COc1cccc(NC(=O)Cn2c(C)c(C(=O)C(F)(F)F)c3ccccc32)c1 | % | 2.26 |
| CCOC(=O)C1=C(C)NC2=C(C(=O)CCC2)C1c1cn(Cc2ccc(Cl)cc2Cl)nc1-c1ccccc1 (stereo not drawn) | % | 1.62 |
| Cc1cccc2nc(-c3cccc(-c4cccc(NC(=O)Nc5ccc(F)c(F)c5F)c4)c3)[nH]c12 | % | 2.44 |
| Cc1nc(-c2ccc(-c3ccc(NC(=O)Nc4ccc(I)c(OCCN(C)C)c4)cc3)c(C)c2)no1 | % | 3.02 |
| O=C(Nc1ccc(-c2ccc(-c3nc4ccccc4[nH]3)cc2)cc1)Nc1ccc(Cl)c(Cl)c1 | % | -4.96 |
| CSc1ccc(NC(=O)Nc2cc(C)nc3ccccc23)cc1Br | % | 0.36 |
| Cc1[nH]c(C)c(-c2cccc(-c3ccc(OC(F)(F)F)cc3)c2)c(=O)c1Br | % | -1.64 |
| CCN(CCCN1CCCCC1)c1cc(C)nc(Nc2ccc(C(C)C)cc2)n1 | % | 2.4 |
| Nc1ccc(-c2nc3cc(Cc4ccc5[nH]c(-c6ccc(N)cc6)nc5c4)ccc3[nH]2)cc1 | % | -2.11 |
| COc1ccc(S(=O)(=O)N2CCC3(CC2)OCC(=O)NC3c2ccc(Cl)c(Cl)c2)cc1 (stereo not drawn) | % | 0.92 |
| CCOc1ccc(-c2nonc2NC(=O)c2ccc(OC(C)C)cc2)cc1OCC | % | 3.68 |
| COc1ccc2nccc([C@@H](O)CN3CCC(NCCOc4ccncc4)CC3)c2c1 | % | -0.87 |
| Oc1cccc(/C=N/Nc2ccnc3cc(Cl)ccc23)c1 | % | 3.14 |
| NC(=O)c1cccc(C(=O)Nc2cccc(-c3csc(-c4nc5ccccc5[nH]4)c3)c2)c1 | % | 2.09 |
| Cc1cccc(C(=O)Nc2ccnc(N3CCC(N(C)Cc4ccccc4)CC3)c2)c1 | % | -0.83 |
| CCCCN(CCCC)C(=O)CC(O)c1cc2c(Cl)cc(Cl)cc2c2cc(C(F)(F)F)ccc12 (stereo not drawn) | % | 2.43 |
| N#Cc1cccc(C(=O)Nc2cccc(-c3ccc(CN4CCC(O)CC4)cc3)c2)c1 | % | 0.83 |
| N#Cc1cccc(NC(=O)Nc2cccc(-c3cccc(-c4nc5cc(F)ccc5[nH]4)c3)c2)c1 | % | 8.96 |
| CC(C)COc1ccc(Cl)cc1Cc1ccc(-c2nc3ccc(F)cc3[nH]2)o1 | % | -0.47 |
| O=C(Nc1ccc(OC2CCN(Cc3ccc(F)cc3)C2)c(Cl)c1)c1ccc(F)cc1 (stereo not drawn) | % | -1.62 |
| CN1CCC(C(=O)Nc2ccc(-c3ccc(-c4nc5ccccc5[nH]4)cc3)cc2)CC1 | % | 0.83 |
| O=C(CC(=O)C(F)(F)F)c1ccc2c(c1)OCO2 | % | 2.14 |
| NC(=O)c1cccc(Nc2nccc(Nc3ccc(Oc4c(Cl)cccc4Cl)c(Cl)c3)n2)c1 | % | 2.92 |
| N#Cc1ccc2c(c1)CN(CCC1CCC(NC(=O)c3cc4cc(OC(F)(F)F)ccc4[nH]3)CC1)CC2 (stereo not drawn) | % | 0.85 |
| O=C(NC1CCC1)C1CCN(C(c2ccccc2)c2cc(F)cc(F)c2)CC1 (stereo not drawn) | % | 6.61 |
| O=C(NC(=O)c1ccccc1O)c1ccccc1O | % | 0.89 |
